Test system: MCF7
Assay protocol: Antiproliferative activity against human MCF7 cells after 72 hrs by MTS/PMS assay
Assay type: functional, cell-based
Condition notes: MCF7, 72 h
pIC50: −log10 of the molar value.
Measure name: pIC50

- Smi: "COc1cccc(-c2cc(C(=O)Nc3cccc(-c4ccc(OC5CCN(C)CC5)cc4)c3)ccc2OC)c1"
  Measure name: "pIC50"
  Readout number: 5.90
- Smi: "COc1cccc(-c2cc(C(=O)Nc3ccc(-c4ccc(OC5CCN(C)CC5)c(NC(C)=O)c4)cc3)ccc2OC)c1"
  Measure name: "pIC50"
  Readout number: 5.74
- Smi: "COc1ccc(C(=O)Nc2ccc(-c3ccc(OC4CCN(C)CC4)cc3)cc2)cc1-c1cccc(N)c1"
  Measure name: "pIC50"
  Readout number: 5.78
- Smi: "CN1CCC(Oc2ccc(-c3ccc(NC(=O)c4ccc(Cl)c(Cl)c4)cc3)cc2)CC1"
  Measure name: "pIC50"
  Readout number: 5.80
- Smi: "COc1cccc(-c2cc(C(=O)Nc3ccc(-c4ccc(OC5CCN(C)CC5)cc4)cc3NC(C)=O)ccc2OC)c1"
  Measure name: "pIC50"
  Readout number: 5.78

I = COc1cccc(-c2cc(C(=O)Nc3ccc(-c4ccc(OC5CCN(C)CC5)cc4)c(C)c3)ccc2OC)c1
II = CN1CCC(Oc2ccc(-c3ccc(NC(=O)c4ccccc4-c4ccccc4)cc3)cc2)CC1
*Q* Please indicate which item has the smaller measured pIC50: I versus II Respond using the label that marks the chosen record.
*A* II
